biological target: Cholesteryl ester transfer protein (Homo sapiens); experiment: Scintillation Proximity Assay (SPA): First, low density lipoprotein (LDL) (Meridian) was biotinylated by incubating LDL with biotin for 1 hour on ice, after which it was dialyzed to remove free biotin. Then compounds at varying concentrations were incubated with 15 nM CETP (reagent production group, In Vitro Pharmacology, MRL Rahway) and 50 ug/ml of the biotinylated LDL in 50 mM HEPES, 150 mM NaCl, pH 7.4, for 1 hour at 37° C. The reaction was started by adding 3H-cholesterol ester high density lipoprotein (HDL) (American Radiochemicals Corp) at a concentration of ~0.6 nM. The reaction proceeded for 2 hours at 37° C., after which time it was quenched by the addition of 12% acetic acid. PVT streptavadin-coated scintillation proximity beads, which had been brought to room temperature, were then added at a concentration of 4 mg/ml. The assay was then mixed and counted after one half hour in a Microbeta plate reader.
Sequence (P11597 whole entry): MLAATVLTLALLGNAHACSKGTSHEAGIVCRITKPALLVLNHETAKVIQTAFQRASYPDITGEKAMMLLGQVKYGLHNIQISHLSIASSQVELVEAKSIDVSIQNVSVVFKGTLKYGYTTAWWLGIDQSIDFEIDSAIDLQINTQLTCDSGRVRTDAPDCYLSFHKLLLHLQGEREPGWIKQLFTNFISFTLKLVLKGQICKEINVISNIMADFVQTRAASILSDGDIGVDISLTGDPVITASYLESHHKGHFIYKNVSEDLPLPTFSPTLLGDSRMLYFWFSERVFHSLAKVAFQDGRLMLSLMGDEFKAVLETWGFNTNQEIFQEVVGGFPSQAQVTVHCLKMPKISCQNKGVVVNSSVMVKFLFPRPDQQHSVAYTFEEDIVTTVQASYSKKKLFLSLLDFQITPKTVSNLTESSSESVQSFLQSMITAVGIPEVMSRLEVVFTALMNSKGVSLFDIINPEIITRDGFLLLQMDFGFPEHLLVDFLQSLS
endpoint: IC50 (nM)

INSERT INTO results (compound_structure, endpoint, quantity_unit, measured_number) VALUES
  ('N#Cc1cccc(-c2ccc(C(F)(F)F)cc2[C@@H]2CC[C@H]3[C@@H](c4cc(C(F)(F)F)cc(C(F)(F)F)c4)OC(=O)N23)c1', 'IC50', 'nM', 177);
